# subject.of.test: human plasma-derived Factor IXa (human, UniProt P00740 47-191; P00740 227-461)
# Sequence (P00740 47-191, chain 1 of 2): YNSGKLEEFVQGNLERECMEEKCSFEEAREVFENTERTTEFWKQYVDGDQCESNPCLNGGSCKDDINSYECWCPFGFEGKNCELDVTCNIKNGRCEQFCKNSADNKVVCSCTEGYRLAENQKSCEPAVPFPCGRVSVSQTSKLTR
# Sequence (P00740 227-461, chain 2 of 2): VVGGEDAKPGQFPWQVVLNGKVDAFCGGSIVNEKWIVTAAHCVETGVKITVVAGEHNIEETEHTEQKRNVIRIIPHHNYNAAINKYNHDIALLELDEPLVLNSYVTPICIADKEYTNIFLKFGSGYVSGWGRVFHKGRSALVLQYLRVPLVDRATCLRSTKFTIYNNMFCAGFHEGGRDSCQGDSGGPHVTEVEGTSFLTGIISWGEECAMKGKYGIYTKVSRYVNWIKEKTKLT
# assay.name: cell-based or functional assay
Exercise: state measured Stimulation Index, FXa generation assay, 800 nM OA antibody for each of the binders provided.
Express your answer in fold, writing the number without its unit.

Need Stimulation Index, FXa generation assay, 800 nM OA antibody, item one-armed (OA) mAb11-1360 (antibody, V domains shown) VH: EVQLVESGGGLVQPGRSLKLSCAASGFTFDDYAMHWVRQVPGKGLEWVSGISWRGDIGGYVDSVKGRFTISRDNAKNSLYLQLNSLRAEDTALYYCVKSYGSGSFYNAFDSWGQGTLVTVSS VL: DIQMTQSPSTLSASVGDRVTITCRASQSISSWLAWYQQKPGKAPKLLIYKASRLERGTPSRFSGSGSGTEFSLTISSLQPDDFATYYCLEYSSYIRTFGQGTKVEIK
1110

Same question for one-armed (OA) mAb11-0164 (antibody, V domains shown) VH: EVQLVESGGGLVQPGRSLKLSCAASGFRFDDYAMHWVRQVPGKGLEWVSGISWKGDIGGYADSVKGRFTISRDNAKNSLYLQLNSLRAEDTALYYCVKSYGSGSFYNAFDSWGQGTLVTVSS VL: DIQMTQSPSTLSASVGDRVTITCRASQSISSWLAWYQQKPGKAPKFLIYKASRLERGTPSRFSGSGSGTEFSLTISSLQPDDFATYYCLEYSSYIRTFGQGTKVEIK please.
3270

Same question for one-armed (OA) mAb11-1286 (antibody, V domains shown) VH: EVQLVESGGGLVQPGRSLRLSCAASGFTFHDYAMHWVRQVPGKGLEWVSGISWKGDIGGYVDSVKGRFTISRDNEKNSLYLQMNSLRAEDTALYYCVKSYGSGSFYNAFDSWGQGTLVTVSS VL: DIQMTQSPSTLSASVGDRVTITCRASQSISSWLAWYQQKPGKAPKFLIYKASRLDRGTPSRFSGSGSGTEFSLTIYDLQPDDFATYYCLEYRSYIRTFGQGTKVEIK please.
1820

Same question for one-armed (OA) mAb11-1389 (antibody, V domains shown) VH: EVQLVESGGGLVQPGRSLKLSCAASGFTFHDYAMHWVRQAPGKGLEWVSGISWKGDIGGYVDSVKGRFTISRDNAKNSLYLQMNSLRAEDTALYYCAKSYGSGSFYNAFDSWGQGTLVTVSS VL: DIQMTQSPSTLSASAGDRVTITCRASQSISSWLAWYQQKPGKAPKFLIYKASRLDRGTPSRFSGSGSGTEFSLTISSLQPDDFATYYCLEYSSYIRTFGQGTKVEIK please.
5790

Same question for one-armed (OA) mAb11-1260 (antibody, V domains shown) VH: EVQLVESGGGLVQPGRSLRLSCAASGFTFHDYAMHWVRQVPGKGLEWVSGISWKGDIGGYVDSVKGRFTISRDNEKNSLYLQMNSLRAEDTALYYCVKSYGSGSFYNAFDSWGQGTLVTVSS VL: DIQMTQSPSTLSASVGDRVTITCRASQQISSWLAWYQQKPGKAPKFLIYKASRLDRGTPSRFSGSGSGTEFSLTISSLQPDDFATYYCLEYSSYIRTFGQGTKVEIK please.
1760
